- procedure-text: soluble on expression in E. coli; label from the status in PepcDB or PDB records
endpoint-name: soluble on expression in E. coli

residue-sequence	endpoint-name	result
MATAADSVYSIESPKAAKSLMLDVVHAGKRLVAVGDRGHILYSDDQGQTWVQAKVPTRQLLTAVYFVDDKRGWAVGHDAQVLASSDGGATWTRQFQDLKREAPLLDVWFKDTQTGYAVGAYGALLETSDGGQHWEDVSDRLDNEDQFHLNAIAQVKDSGLFIVGEQGSMFRSADDGQTWERLEGPYEGSLFGVIGTGQPATLLVYGLRGNLYRSTDFGSTWEQVELNAARGALEFGLSGATLLDDGSLVIVGNGGSVIRSTDHGQTFSVFNRADRISLSAVTAAGNGDLILAGQGGVRVSAATGAELGQLEHHHHHH	soluble on expression in E. coli	not soluble
GMSQRIGVIDMGTNTFHLLITDIVNDRPHTLVNEKSAVGLGKGGITKGFITEEAMDRALDTLKKFRVILDEHAVVHVIATGTSAVRSGSNKQVLIDRIKKEVNIDVEVIDGAREAELIFRGVQQAVPMEDHISLAMDIGGGSVEFIIGNKNEILWKQSFEIGGQRLIDRFHVHDPMREDDRVMMHNYFDEVLVPLEKAINTWRPTQLIGCSGTFDTLAEMNIQHHREKIALEKQTSYLLSLPDFNRLRKQLVASTRRERLAIAGMIELRADMVVVAICLIEHVLKLVSTNAITVSTYSLKEGVLYTMLDGVKVGS	soluble on expression in E. coli	soluble
MAHHHHHHMDRLAGSFLSNGDVANASSLYNSLEKLNPTRYSRMARICRVLLNPQGVPLPHRHLDICEALLDPLVPPEVLLRDSAENVQKSFQRLAVCAHPDKNPSPSANEAFLRLTMMKDKALELLRNGVGRKCDGATEAPPGKAADSNGGKGKPKMQGSGPAVPTVAHRRRPLRPGVPL	soluble on expression in E. coli	soluble
MLEKFTVIRGKAVPLRGEDIDTDRILPARFMKVLTFEGLGQYLFYDERFDEKGNPKPHPLNDPRYRGATILLVESGFGSGSSREHAPQAIKRAGFKAIIGESFAEIFFGNATAIGLPCVSLAPEDLGVLFRSVEENPELEVEIDLVNKEVRFGDRTAPLFIREEAREALVEGLWDPIGELLEAGELLDQFDRKLPYPRRTE	soluble on expression in E. coli	soluble
MSLNRVSHPLTYENFKTSSAEQESKITKLLENLYKGGKRIVKLRNDPTGVTHAIRLDNDIFKLNVYIKNIDTSKSNLRYTEGYLQSLTNILTRAKEIAIQGASGTYESDDKKMISKEVNALLEDVVAIANAKGPDGYSIFSGTKIDSEAFKVTRENKISKTSKDGAGPQIIKVEYNGNQAEKKTEVYNDIHMSNNYPGNVIFFLQNQNIISSINTNGFAVKENTKIYIDNIEIGLTAGDTALDIVAKINESSAPVEASIDPVLNSLSIKTTTPHQIWITEEKESNVLQTLGILTKNNDTKLPPYNLSSSTEVRSRSIFDALIELRDTLYNNKEELVGSRSLAEIDESLKRLLISVADLGAKENRLDRSYERISKEAADMKEDMIQYTDEGHHHHHH	soluble on expression in E. coli	soluble

Prompt line: Entry MREVKLVTFDVWNTLLDLNIMLDEFSHQLAKISGLHIKDVANAVIEVRNEIKKMRAQASEDPRKVLTGSQEALAGKLKVDVELVKRATARAILNVDESLVLEGTKEALQFVKERGLKTAVIGNVMFWPGSYTRLLLERFGLMEFIDKTFFADEVLSYKPRKEMFEKVLNSFEVKPEESLHIGDTYAEDYQGARKVGMWAVWINQEGDKVRKLEERGFEIPSIANLKDVIELISKT : reported soluble on expression in E. coli = ?
Response line: soluble

Prompt line: Also need MMRGSHHHHHTDPISYIIRKADSVNKALDSAVPLREPLKIHEAMRYSLLAGGKRVRPVLCIAACELVGGEESLAMPAACAVEMIHTMSLIHDDVYGEDVAVLAGDALLSFAFEHLASATSSEVSPARVVRAVGELAKAIGTEGLVAGQVVDISNVGLEHLKFIHLHKTAALLEASAVLGGIIGGGSDEEIERLRKFARCIGLLFQVVDDILDVTIADKLTYPKLMGLEKSREFAEKLNTEARDQLLGFDSDKVAPLLALANYIANRQN , thanks.
Response line: soluble

Prompt line: Entry MLIALTGTPGTGKSSVAERLRERGYKVATVVELAEKHGCIIDEEDGEIVIDVESLAARIDFEGIVEGHLSHLLKPDVAIVLRCNPAVLRERLKGRNWSEEKLLENLEAEMLDVILVEALEHASEVYEIDTTEMSLEEVIEAVEAIIRGDREARKRYKPGGIDWLSELEDRIEEFMRKVLEHHHHHH please
Response line: soluble

Prompt line: Follow-up entry: NDSPFYVNPNMSSAEWVRNNPNDPRTPVIRDRIASVPQGTWFAHHNPGQITGQVDALMSAAQAAGKIPILVVSNAPGRDCGNHSSGGAPSHSAYRSWIDEFAAGLKNRPAYIIVEPDLISLMSSCMQHVQQEVLETMAYAGKALKAGSSQARIYFDAGHSAWHSPAQMASWLQQADISNSAHGIATNTSNYRWTADEVAYAKAVLSAIGNPSLRAVIDTSRNGNGPAGNEWCDPSGRAIGTPSTTNTGDPMIDAFLWIKLPGEADGCIAGAGQFVPQAAYEMAIAA
Response line: soluble

Prompt line: Then this sequence: MSLIQNVYINGLSGVSAQPTFDESYVDGNVQTETIPYRKVLDPDYKQYLNPTASRRFSRLIKMSLVAAQKSIAMADGVMPEAIITGTGLGCLEDTEKFLKALIENNESMLSPTAFIQSTHNTISGQIAMMITCYYPNYTYSNRYFTFESSLLDAVLMLLDKSCKHVLVNAADEIIPAVHTIVKRMHLWDRAEAIAHKNALAVTAGEGVVSMMLSSEKKESSVAAVKALELIYILPKDTSIEAHFKKFLAEASLTAADIDVLVLGMNGDAASDVYYEPVRNLFSTSTHVVYKHHFGESFTASSFAYWLGAQLIRHKKIDASVILSDKGHRAPKRVLLYNQSHNKYHSFCLLTDVDEGHHHHHH
Response line: not soluble

Prompt line: Similarly, MPFWGAGIKILHISEDFRTVKVRLKLRWWNKNANRTQYGGSIFSLTDPIYSLMLMGILREEYYVWDKEASINFIKPGQSDLFAEFEITDGMLDEIYQMTRNGEKCFPEFITHVKDKQGNVVSEVQRKLYVRKLEHHHHHH ?
Response line: not soluble
